Each recorded value in this set is attributed to ChEMBL document CHEMBL4138200.

- experimental.system: Neuronal acetylcholine receptor subunit alpha-7 (Homo sapiens) (UniProt P36544)
- Sequence (P36544 whole entry): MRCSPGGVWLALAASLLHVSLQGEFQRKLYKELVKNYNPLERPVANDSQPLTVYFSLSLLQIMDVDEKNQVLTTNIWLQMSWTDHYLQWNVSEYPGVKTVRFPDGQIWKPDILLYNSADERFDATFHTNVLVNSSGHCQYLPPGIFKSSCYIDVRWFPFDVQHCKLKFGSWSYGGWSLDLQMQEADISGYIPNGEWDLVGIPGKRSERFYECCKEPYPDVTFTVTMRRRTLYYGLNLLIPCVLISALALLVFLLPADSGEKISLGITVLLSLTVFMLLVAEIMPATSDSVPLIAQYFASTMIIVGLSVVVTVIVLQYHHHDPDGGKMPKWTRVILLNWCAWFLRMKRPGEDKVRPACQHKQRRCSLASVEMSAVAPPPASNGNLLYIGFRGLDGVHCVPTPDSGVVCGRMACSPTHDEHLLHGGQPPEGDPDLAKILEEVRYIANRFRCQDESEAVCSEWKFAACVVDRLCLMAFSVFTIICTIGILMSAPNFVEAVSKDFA
- assay.protocol: Positive allosteric modulation of human alpha7 nAChR expressed in Xenopus laevis oocytes assessed as acetyl choline-evoked currents at 10 uM at -80 mV holding potential prtreated for 2 mins followed by co-treatment with acetyl choline by electrophysiology method relative to acetyl choline
- Assay type: cell-based
property.name: Activity (%)

| molecule | property.name | reading |
| --- | --- | --- |
| Br.CC(C)C(N)C(=O)N1CCC[C@H]1C(=O)NC(C(=O)Oc1ccc(CCC(=O)c2cc(O)ccc2O)c(O)c1)C(C)C (stereo in doubt) | Activity | 25.3 |
| CC(C)C(N)C(=O)NC(C(=O)Oc1ccc(/C=C/C(=O)c2cc(O)ccc2O)c(O)c1)C(C)C (stereo in doubt) | Activity | 24.5 |
| CC(C)C(N)C(=O)NC(C(=O)Oc1ccc(CCC(=O)c2cc(O)ccc2O)c(O)c1)C(C)C (stereo in doubt) | Activity | 26.7 |

P = CC(C)C(N)C(=O)N1CCC[C@H]1C(=O)NC(C(=O)Oc1ccc(CCC(=O)c2cc(O)ccc2O)cc1)C(C)C (stereo in doubt)
Q = O=C(CCc1ccc(O)cc1)c1cc(O)ccc1O
R = Br.CC(C)C(N)C(=O)NC(C(=O)Oc1ccc(CCC(=O)c2cc(O)ccc2O)cc1)C(C)C (stereo in doubt)
S = O=C(CCc1ccc(O)cc1O)c1cc(O)ccc1O
Ranking field: Activity; order: falling. Provide your answer as the labels ordered per the instruction. S, Q, P, R
(S: 989%, Q: 666%, P: 24.7%, R: 14.7%)
